# Tested on: Streptococcus mutans
# experiment: Antimicrobial activity against Streptococcus mutans 240 assessed as biofilm formation at 100 uM after 48 hrs by crystal violet staining-based spectrophotometry relative to control
# Format: functional
readout_name: Activity

Solved entries:
Exam item: Please look up its Activity: "Cl.Nc1nc(-c2ccc(NC(=O)c3cc4cc(Cl)ccc4[nH]3)cc2)c[nH]1"
Marked response: 38.2%

Exam item: Try "Cl.Nc1nc(-c2cccc(NC(=O)c3cc4cc([N+](=O)[O-])ccc4[nH]3)c2)c[nH]1" next.
Marked response: 33.3%

Exam item: Try "Nc1ncc(/C=C/CNC(=O)c2cc(Br)c(Br)[nH]2)[nH]1" next.
Marked response: 18%

Exam item: Try "Cl.Nc1nc(-c2ccc(NC(=O)c3cc4cc(F)ccc4[nH]3)cc2)c[nH]1" next.
Marked response: 3.9%

Exam item: Try "Nc1nc(/C=C/CNC(=O)c2cc3cc(F)ccc3[nH]2)c[nH]1" next.
Marked response: 18.7%

Exam item: Try "COc1ccc2[nH]c(C(=O)Nc3cccc(-c4c[nH]c(N)n4)c3)cc2c1.Cl" next.
Marked response: 10.5%

Further cases:
Exam item: Please look up its Activity: "Cl.Nc1nc(-c2cccc(NC(=O)c3c[nH]c4ccccc34)c2)c[nH]1"
Marked response: 23.9%

Exam item: Try "CC(C)(C)OC(=O)n1cc(-c2cccc(NC(=O)c3cc4ccccc4[nH]3)c2)nc1N" next.
Marked response: 30.6%

Exam item: Try "Cl.Nc1nc(-c2cccc(NC(=O)c3cc4cc(F)ccc4[nH]3)c2)c[nH]1" next.
Marked response: 8.7%
